# Species: Homo sapiens
# Assay procedure: Selectivity index, ratio of IC50 for recombinant human MAO-A to IC50 for recombinant human MAO-B
One threshold, 20, splits the recorded Ratio IC50 values: lower ones are Yes, equal or higher ones are No.

{"columns": ["Item smiles", "Cat"],
 "data": [
  ["O=C1CCCc2cc(OCc3ccc(I)cc3)ccc21", "No"],
  ["O=C1CCCc2cc(OCc3cccc(Br)c3)ccc21", "No"],
  ["N#Cc1ccc(COc2ccc3c(c2)CCCC3=O)cc1", "No"],
  ["O=C1CCCc2cc(OCc3cccc(Cl)c3)ccc21", "Yes"],
  ["O=C1CCCc2cc(OCCCc3ccccc3)ccc21", "No"],
  ["O=C1CCCc2cc(O)ccc21", "Yes"],
  ["O=C1CCCc2cc(OCCc3ccccc3)ccc21", "No"],
  ["O=C1CCCc2cc(OCc3cccc(I)c3)ccc21", "No"],
  ["O=C1CCCc2cc(OCc3ccc(Br)cc3)ccc21", "No"],
  ["O=C1CCCc2cc(OCc3cccc(F)c3)ccc21", "No"],
  ["N#Cc1cccc(COc2ccc3c(c2)CCCC3=O)c1", "Yes"],
  ["O=C1CCCc2cc(OCc3ccc(C(F)(F)F)cc3)ccc21", "No"],
  ["Cc1ccc(COc2ccc3c(c2)CCCC3=O)cc1", "No"],
  ["O=C1CCCc2ccccc21", "Yes"],
  ["O=C1CCCc2cc(OCc3ccccc3)ccc21", "Yes"]
]}
